# PROCEDURE TEXT: fungicidal lysis via adenylate kinase leakage – AK release luminescence, single concentration, primary screen (AID 651654)
# CONDITIONS: C. neoformans lysis, 4 h, at 15 µM, hits give high values, normalised: neutral wells 0, clomiphene wells 100
In all, about 360,000 compounds went through this assay and about 740 (0.21%) were called active. This is one part of a sample in which actives are shown more often than they occur.
ASSAY METRIC: lysis activity (%)
# unit: % | format: bare number

Lookup result for CCCNC(=O)N1[C@@H]2c3cccc(=O)n3C[C@H]1[C@H](CO)[C@H]2C(=O)NCC(F)(F)F ; measured lysis activity: -3.09

Value of measured lysis activity for the entry CN1c2ccc(-c3ccccc3)cc2[C@H]2[C@H](CCN2C(=O)c2ccc3c(c2)OCO3)[C@H]1CO : -10.3

Lab note: measured lysis activity of O=C(C[C@@H]1C[C@@H]2c3cc(NS(=O)(=O)c4ccc(F)cc4)ccc3O[C@@H]2[C@@H](CO)O1)NCc1ccncc1 was -3.62

Per the records, this compound ( O=C(N[C@H]1CC[C@@H](CCNS(=O)(=O)c2ccccc2)O[C@H]1CO)c1cccnc1 ) has lysis activity equal to -5.13

Form: compound = CCCNC(=O)[C@@H]1[C@@H](CO)[C@@H]2Cn3c(cccc3=O)[C@H]1N2C(=O)Nc1cc(F)ccc1F ; lysis activity = 92.3

For record O=C(C[C@@H]1CC[C@@H]2[C@H](COC[C@H](O)CN2Cc2cccc(-c3ccncc3)c2)O1)N1CCOCC1 the listed lysis activity is -0.0585

Entry CO[C@@H](CN(C)C(=O)c1cnccn1)[C@@H](C)CN([C@@H](C)CO)S(=O)(=O)c1ccc(F)cc1 — recorded lysis activity = 59.1

Please fill in: lysis activity reported for CO[C@@H]1CN(C)C(=O)c2ccc(NS(=O)(=O)c3ccc(Cl)cc3)cc2OC[C@H](C)N(C(=O)NC(C)C)C[C@H]1C = -5.3

Note to self: lysis activity recorded for C[C@H](CO)N1C[C@H](C)[C@@H](CN(C)C(=O)c2ccncc2)Oc2ncc(-c3ccncc3)cc2C1=O was -2.74

The measured lysis activity associated with CN(C)C(=O)C[C@H]1CC[C@@H](NC(=O)C2CC2)[C@@H](CO)O1 reads -0.137
